These data points were gathered from the supplement of paper PMC6470124.

Reported absolute recovery values are given for each entry in this list.
PROCEDURE_DETAILS: absolute recovery over mixed-bed multilayer solid-phase extraction; higher = better recovery
EXPERIMENTAL_CONDITIONS: wastewater effluent; enrichment method: SPE
READOUT: absolute recovery (%)

compound=COC(=O)[N-]S(=O)(=O)c1ccc(N)cc1 readout="absolute recovery" assay_result=42.6
compound="CC(=O)N1CCN(c2ccc(OCC3COC(Cn4cc[nH+]c4)(c4ccc(Cl)cc4Cl)O3)cc2)CC1 (configuration not stated)" readout="absolute recovery" assay_result=66.4
compound=CCCCCCCCCC[N+](C)(C)[O-] readout="absolute recovery" assay_result=93.4
compound=c1ccc(CN2CC[NH2+]CC2)cc1 readout="absolute recovery" assay_result=56.2
compound="CCOC(=O)C1(c2ccccc2)CCC=CC1[NH+](C)C (configuration not stated)" readout="absolute recovery" assay_result=79.5
compound="CCCC1COC(Cn2cncn2)(c2ccc(Cl)cc2Cl)O1 (configuration not stated)" readout="absolute recovery" assay_result=91.8
compound="CC(O)(CS(=O)(=O)c1ccc(F)cc1)C(=O)Nc1ccc(C#N)c(C(F)(F)F)c1 (configuration not stated)" readout="absolute recovery" assay_result=94.3

---

As shown below, each of these compounds has a reported absolute recovery value.
PROCEDURE_DETAILS: absolute recovery over mixed-bed multilayer solid-phase extraction; higher = better recovery
EXPERIMENTAL_CONDITIONS: nanopure water; enrichment method: SPE
READOUT: absolute recovery (%)

compound=CC[NH+](CC)CCNC(=O)c1cc(S(C)(=O)=O)ccc1OC assay_result=90.9
compound="O=c1ccn(C2OC(CO)C(O)C2(F)F)c(=O)[nH]1 (stereo not drawn)" assay_result=88.2
compound=CCOC(=O)C1(c2ccccc2)CC[NH+](C)CC1 assay_result=88.6

---

PROCEDURE_DETAILS: absolute recovery over mixed-bed multilayer solid-phase extraction; higher = better recovery
EXPERIMENTAL_CONDITIONS: wastewater effluent; enrichment method: SPE
READOUT: absolute recovery (%)

compound="CSc1nc2cc(Oc3cccc(Cl)c3Cl)c(Cl)cc2[nH]1 [Triclabendazol]" value_unit=% assay_result=88.5
compound="COCCN(C(=O)CCl)c1c(C)cccc1C [Dimethachlor]" value_unit=% assay_result=89.6
compound="C[NH+]=CNc1ccc(C)cc1C [N-(2-4-dimethylphenyl)-N-methylformamidine]" value_unit=% assay_result=47.9
compound="CC(C)(C)C(O)(CCc1ccc(Cl)cc1)Cn1cncn1 (configuration not stated) [Tebuconazol]" value_unit=% assay_result=96
compound="CC(C)c1ccc(NC(N)=O)cc1 [Isoproturon-didemethyl (=1-(4-Isoprophenyl)urea)]" value_unit=% assay_result=95.4
compound="COC(=O)C1C(OC(=O)c2ccccc2)CC2CCC1[NH+]2C (configuration not stated) [Cocaine]" value_unit=% assay_result=93.8
compound="COCC(=O)N(c1c(C)cccc1C)C(C)C(=O)OC (configuration not stated) [Metalaxyl]" value_unit=% assay_result=93.6
compound="COC(=O)C1C2CC3c4[nH]c5cc(OC)ccc5c4CC[NH+]3CC2CC(OC(=O)c2cc(OC)c(OC)c(OC)c2)C1OC (configuration not stated) [Reserpin]" value_unit=% assay_result=80.1
compound="COc1cccc(C(=O)NN(C(=O)c2cc(C)cc(C)c2)C(C)(C)C)c1C [Methoxyfenozid]" value_unit=% assay_result=98.1
compound="CCNC(=O)C(C)OC(=O)Nc1ccccc1 (configuration not stated) [Carbetamid]" value_unit=% assay_result=94.9
compound="O=C(NC(=O)c1c(F)cccc1F)Nc1ccc(Cl)cc1 [Diflubenzuron]" value_unit=% assay_result=114
compound="Cc1cc(C2CC2)nc(Nc2ccccc2)n1 [Cyprodinil]" value_unit=% assay_result=92.5
